System: HCV replicon 2B
assay.details: microbe, parasite or virus in culture
Format: cell-based, Hepatitis C virus (HCV)
study.conditions: read-out: 2B IC50; HCV replicon 2B; Replicon Assay A

- molecule: "CCCc1ccc(C2Oc3cc(-c4cnc([C@@H]5CCCN5C(=O)[C@@H](NC(=O)OC)C(C)C)[nH]4)cc(F)c3-c3cc4cc(-c5cnc([C@@H]6CCCN6C(=O)C(NC(=O)OC)C6CCOC(C)(C)C6)[nH]5)ccc4n32)s1 (single isomer, unassigned) [Compound 566]"
  result.units: "pM"
  IC50: 310
- molecule: "COC(=O)N[C@H](C(=O)N1CCC[C@H]1c1ncc(-c2cc(F)c3c(c2)OC(c2cc4c(s2)CCC4)n2c-3cc3cc(-c4cnc([C@@H]5C[C@H]6C[C@H]6N5C(=O)[C@@H](NC(=O)OC)C5CCOCC5)[nH]4)ccc32)[nH]1)C(C)C (single isomer, unassigned) [Compound 541]"
  result.units: "pM"
  IC50: 96
- molecule: "COC(=O)N[C@H](C(=O)N1CCC[C@H]1c1ncc(-c2cc(F)c3c(c2)OC(c2cc(C)c(C)s2)n2c-3cc3cc(-c4cnc([C@@H]5C[C@@H](F)CN5C(=O)[C@@H](NC(=O)OC)C(C)C)[nH]4)ccc32)[nH]1)C(C)C (single isomer, unassigned) [Compound 516]"
  result.units: "pM"
  IC50: 5200
- molecule: "COC(=O)N[C@H](C(=O)N1CCC[C@H]1c1ncc(-c2ccc3c(c2)OC(c2ccc(C4CC4)s2)n2c-3cc3cc(-c4cnc([C@@H]5CCCN5C(=O)[C@@H](NC(=O)OC)C(C)C)[nH]4)ccc32)[nH]1)C(C)C (single isomer, unassigned) [Compound 703]"
  result.units: "pM"
  IC50: 120
- molecule: "COC(=O)N[C@H](C(=O)N1CCC[C@H]1c1ncc(-c2cc(C)c3c(c2)OC(c2ccc(C4CC4)s2)n2c-3cc3cc(-c4cnc([C@@H]5C[C@H]6C[C@H]6N5C(=O)[C@@H](NC(=O)OC)C5CCOCC5)[nH]4)ccc32)[nH]1)C(C)C (single isomer, unassigned) [Compound 764]"
  result.units: "pM"
  IC50: 5.2
- molecule: "CCc1ccc(C2Oc3cc(-c4cnc([C@@H]5CCCN5C(=O)[C@@H](NC(=O)OC)C(C)C)[nH]4)ccc3-c3c(F)c4cc(-c5cnc([C@@H]6CCCN6C(=O)[C@@H](NC(=O)OC)C(C)C)[nH]5)ccc4n32)s1 (single isomer, unassigned) [Compound 601]"
  result.units: "pM"
  IC50: 1240
- molecule: "COC(=O)NC(C(=O)N1CCC[C@H]1c1ncc(-c2ccc3c(c2)cc2n3C(c3ccc(C4CC4)s3)Oc3cc(-c4cnc([C@@H]5C[C@H]6C[C@H]6N5C(=O)[C@@H](NC(=O)OC)C(C)C)[nH]4)cc(F)c3-2)[nH]1)C1C[C@@H](C)O[C@@H](C)C1 (single isomer, unassigned) [Compound 536]"
  result.units: "pM"
  IC50: 21.9
- molecule: "COC(=O)N[C@H](C(=O)N1CCC[C@H]1c1ncc(-c2cc(F)c3c(c2)OC(c2cc4c(s2)CCC4)n2c-3cc3cc(-c4cnc([C@@H]5C[C@H]6C[C@H]6N5C(=O)[C@@H](NC(=O)OC)C5CCOCC5)[nH]4)ccc32)[nH]1)C(C)C (single isomer, unassigned) [Compound 542]"
  result.units: "pM"
  IC50: 33.5
- molecule: "COC(=O)N[C@H](C(=O)N1C[C@H](F)C[C@H]1c1ncc(-c2ccc3c(c2)cc2n3C(c3cc4ccccc4s3)Oc3cc(-c4cnc([C@@H]5CCCN5C(=O)[C@@H](NC(=O)OC)C5CCOCC5)[nH]4)ccc3-2)[nH]1)C(C)C (single isomer, unassigned) [Compound 623]"
  result.units: "pM"
  IC50: 345
- molecule: "COC(=O)N[C@H](C(=O)N1CCC[C@H]1c1ncc(-c2cc(C)c3c(c2)OC(c2ccc(C4CC4)s2)n2c-3cc3cc(-c4cnc([C@@H]5CCCN5C(=O)[C@@H](NC(=O)OC)C(C)C)[nH]4)ccc32)[nH]1)C(C)C (single isomer, unassigned) [Compound 753]"
  result.units: "pM"
  IC50: 23
- molecule: "COC(=O)N[C@H](C(=O)N1C[C@H](F)C[C@H]1c1ncc(-c2ccc3c(c2)OC(c2ccc(C)s2)n2c-3cc3cc(-c4cnc([C@@H]5C[C@H]6C[C@H]6N5C(=O)[C@@H](NC(=O)OC)C(C)C)[nH]4)ccc32)[nH]1)C(C)C (single isomer, unassigned) [Compound 706]"
  result.units: "pM"
  IC50: 4610
- molecule: "COC(=O)N[C@H](C(=O)N1CCC[C@H]1c1ncc(-c2cc(F)c3c(c2)OC(c2ccc(C4CCCCC4)s2)n2c-3cc3cc(-c4cnc([C@@H]5CCCN5C(=O)[C@@H](NC(=O)OC)C(C)C)[nH]4)ccc32)[nH]1)C(C)C (single isomer, unassigned) [Compound 528]"
  result.units: "pM"
  IC50: 8810
- molecule: "COC(=O)N[C@H](C(=O)N1C2CC2C[C@H]1c1ncc(-c2cc(F)c3c(c2)OC(c2ccc(C4CC4)s2)n2c-3cc3cc(-c4cnc([C@@H]5CCCN5C(=O)[C@@H](NC(=O)OC)C5C[C@@H](C)O[C@@H](C)C5)[nH]4)ccc32)[nH]1)C(C)C (single isomer, unassigned) [Compound 554]"
  result.units: "pM"
  IC50: 203
- molecule: "CCc1ccc(C2Oc3cc(-c4cnc([C@@H]5CCCN5C(=O)[C@@H](NC(=O)OC)C(C)C)[nH]4)ccc3-c3c(F)c4cc(-c5cnc([C@@H]6CCCN6C(=O)C(NC(=O)OC)C6C[C@@H](C)O[C@@H](C)C6)[nH]5)ccc4n32)s1 (single isomer, unassigned) [Compound 633]"
  result.units: "pM"
  IC50: 311
